TARGET DESC: T1, human CD200R1 isoform a on CHOK1 cells (CHOK1/hCD200R1a) (human, UniProt Q8TD46 25-348)
T1 construct: also called CHOK1/CD200R1a
T1 sequence: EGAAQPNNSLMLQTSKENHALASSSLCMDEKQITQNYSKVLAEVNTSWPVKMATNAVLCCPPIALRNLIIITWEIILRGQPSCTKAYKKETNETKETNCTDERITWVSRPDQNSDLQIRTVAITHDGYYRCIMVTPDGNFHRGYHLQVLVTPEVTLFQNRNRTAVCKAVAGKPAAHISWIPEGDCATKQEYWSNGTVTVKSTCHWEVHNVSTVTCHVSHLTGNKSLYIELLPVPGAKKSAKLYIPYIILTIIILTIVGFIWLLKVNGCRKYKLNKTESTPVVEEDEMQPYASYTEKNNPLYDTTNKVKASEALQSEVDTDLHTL
PROTOCOL DETAILS: flow cytometry, CHOK1/hCD200R1a cells (FITC-Mean); table beside the curves
QUANTITY KIND: MFI(Max)
Numbers only.

Before answering, review these 2 worked examples.
BINDER | QUANTITY KIND | MEASURED RESULT
PR007631 (antibody, human IgG1, kappa, V domains shown, PTM variant of PR006839 (human IgG1)) VH: QVQLVESGGGVVQPGRSLRLSCAASGFTFSSYGFHWVRQAPGKGLEWLGLIWSDARHKDYADSVKGRFTISRDNSKNTLYLQMNSLRAEDTAVYYCARDRIVGEGFDYWGQGTLVTVSS VL: DIVMTQSPLSLPVTPGEPASISCRSSQSLLHRSGYNYLDWYLQKPGQSPQLLIYLGSYRWSGVPDRFSGSGSGTDFTLKISRVEAEDVGVYYCMQGLQTMYTFGQGTKLEIKR | MFI(Max) | 19400
PR002906 (antibody, V domains shown, also called recombinant IgG1 antibody of huDX182) VH: QVQLQESGPGLVKPSETLSLTCTVSGYTITSGYDWSWIRQPPGKGLEWIGYINYGGSTNYKPSLGSRVTISVDTSKNQFSLKLSSVTAADTAVYYCARYNEYKSYIYDWYFDFWGQGTLVTVSS VL: DIQMTQSPSSLSASVGDRVTITCKASKNIRSYLAWYQQKPGKAPKLLIYSGSTLHSGVPSRFSGSGSGTDFTLTISSLQPEDFATYYCQQHHEYPLTFGQGTKVEIKR | MFI(Max) | 13900

Moving on to the next binder.
In plain terms, PR007974 (antibody, human IgG1, kappa, V domains shown, PTM variant of PR006839 (human IgG1)) VH: QVQLVESGGGVVQPGRSLRLSCAASGFTFSYYGFHWVRQAPGKGLEWLGLIWSDARHKDYADSVKGRFTISRDNSKNTLYLQMNSLRAEDTAVYYCARDRIVGEGFDYWGQGTLVTVSS VL: DIVMTQSPLSLPVTPGEPASISCRSSQSLLHRSGYNYLDWYLQKPGQSPQLLIYLGSYRASGVPDRFSGSGSGTDFTLKISRVEAEDVGVYYCQQGIQTTYTFGQGTKLEIKR has a documented MFI(Max) of 18900
